target: phosphorylated EGFR (pEGFR) (Homo sapiens (Human)); assay: Detection of phosphorylated EGFR (pEGFR) by AlphaLISA in A431 cells; conditions: A431 cells (10% FBS), 4 hours incubation, EGF 30 ng/mL for 10 minutes
Sequence (P00533 25-1210): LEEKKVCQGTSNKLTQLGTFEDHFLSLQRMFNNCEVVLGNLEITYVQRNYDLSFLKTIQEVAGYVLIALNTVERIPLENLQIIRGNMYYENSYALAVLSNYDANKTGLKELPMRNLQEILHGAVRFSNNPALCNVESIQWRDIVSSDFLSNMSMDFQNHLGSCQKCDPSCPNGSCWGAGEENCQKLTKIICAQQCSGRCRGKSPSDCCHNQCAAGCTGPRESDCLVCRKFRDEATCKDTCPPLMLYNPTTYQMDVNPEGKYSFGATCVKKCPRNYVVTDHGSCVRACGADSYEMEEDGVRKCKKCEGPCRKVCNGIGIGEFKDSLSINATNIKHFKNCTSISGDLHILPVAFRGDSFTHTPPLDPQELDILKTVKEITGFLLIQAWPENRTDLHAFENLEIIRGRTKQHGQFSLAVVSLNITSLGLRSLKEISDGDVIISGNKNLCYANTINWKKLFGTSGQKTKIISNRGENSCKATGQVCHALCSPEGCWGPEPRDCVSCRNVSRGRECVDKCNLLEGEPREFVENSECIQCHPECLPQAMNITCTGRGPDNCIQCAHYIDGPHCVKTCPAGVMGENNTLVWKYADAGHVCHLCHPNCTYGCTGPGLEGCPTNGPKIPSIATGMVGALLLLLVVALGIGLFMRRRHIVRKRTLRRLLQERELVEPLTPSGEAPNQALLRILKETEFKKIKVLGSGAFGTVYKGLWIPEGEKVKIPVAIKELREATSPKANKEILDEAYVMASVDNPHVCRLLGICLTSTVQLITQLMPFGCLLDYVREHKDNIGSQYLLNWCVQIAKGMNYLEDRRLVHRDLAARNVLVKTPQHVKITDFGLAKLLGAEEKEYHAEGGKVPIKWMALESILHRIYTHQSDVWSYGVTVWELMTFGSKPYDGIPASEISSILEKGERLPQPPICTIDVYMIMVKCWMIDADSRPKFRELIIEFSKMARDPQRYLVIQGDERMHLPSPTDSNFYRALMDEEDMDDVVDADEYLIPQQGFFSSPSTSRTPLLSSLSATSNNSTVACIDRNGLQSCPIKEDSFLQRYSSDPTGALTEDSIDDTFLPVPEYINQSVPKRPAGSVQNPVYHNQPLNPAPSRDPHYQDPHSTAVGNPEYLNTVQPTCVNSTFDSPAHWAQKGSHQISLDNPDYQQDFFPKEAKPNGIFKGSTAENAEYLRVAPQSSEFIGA
recorded_endpoint: IC50 (nM)

{"compound": "Cc1cc(Nc2ncnc3cc4c(nc23)N2CCN(C(=O)/C=C/CN(C)C)C(CCO4)C2)ccc1Oc1ccn2ncnc2c1 (stereo not drawn) [Compound 52]", "recorded_endpoint": "IC50", "unit_spec": "nM", "value_prefix": ">", "result_number": 10000}
{"compound": "Cc1cc(Nc2ncnc3cc4c(nc23)N2CCN(C(=O)/C=C/C3(F)CN(C)C3)C(CO4)C2)ccc1Oc1ccn2ncnc2c1 (stereo in doubt) [Compound 53]", "recorded_endpoint": "IC50", "unit_spec": "nM", "value_prefix": "=", "result_number": 3390}
{"compound": "Cc1cc(Nc2ncnc3cc4c(nc23)N2CCN(C(=O)/C=C/CN(C)C)C(CO4)C2)c(F)cc1Oc1ccn2ncnc2c1 (stereo in doubt) [Compound 24]", "recorded_endpoint": "IC50", "unit_spec": "nM", "value_prefix": "=", "result_number": 2160}
{"compound": "CN(C)C/C=C/C(=O)N1CCN2CC1COc1cc3ncnc(Nc4ccc(Oc5ccn6ncnc6c5)c(Cl)c4)c3nc12 (stereo in doubt) [Compound 32]", "recorded_endpoint": "IC50", "unit_spec": "nM", "value_prefix": "=", "result_number": 920}
{"compound": "C=CC(=O)N1CCN2CC1COc1cc3ncnc(Nc4ccc(Oc5ccc6c(c5)ncn6C)c(C)c4)c3cc12 (stereo in doubt) [Compound 3]", "recorded_endpoint": "IC50", "unit_spec": "nM", "value_prefix": "=", "result_number": 1470}
{"compound": "C=CC(=O)N1CCN2CC1COc1cc3ncnc(Nc4ccc(Oc5ccn6ncnc6c5)c(C)c4)c3cc12 (stereo in doubt) [Compound 5]", "recorded_endpoint": "IC50", "unit_spec": "nM", "value_prefix": ">", "result_number": 10000}
